Target: T1, EGFR Fc (human, UniProt P00533 25-645)
T1 construct: also called EGFR-hFc; recombinant human EGFR-Fc
Test: ELISA, EGFR Fc coated, VHH at 0.0032 nM
Readings of OD450 for the listed binders
// print number alone

Examples with their reported OD450 follow.
{"BINDER": "pgEG-SX22 (VHH, not shown: small tags and cut ends) VHH: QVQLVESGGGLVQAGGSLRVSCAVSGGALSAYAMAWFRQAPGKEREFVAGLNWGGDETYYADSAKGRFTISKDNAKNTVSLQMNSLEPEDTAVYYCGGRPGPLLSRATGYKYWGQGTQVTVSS", "REPORTED RESULT": 0.304}
{"BINDER": "pgEG-SX39 (VHH, not shown: small tags and cut ends) VHH: QVQVAESGGGLVQAGESLRLSCTASGSISTINAVRWYRQTPGKQREFVAYISTDGGTDYADPVKGRFTISRDNAKNTWFLQMNSLKPEDTGVYMCNVVVTPYAYWGQGTQVTVSS", "REPORTED RESULT": 0.075}
{"BINDER": "pgEG-SX56 (VHH, not shown: small tags and cut ends) VHH: QVQLVESGGGFVQAGGSLRLSCAASGRFLSIADMDWYRRVPGKQRELVASITRAGDTALEDSVKGRFTISRDNAKNTVHLQMNSVKPEDTAVYYCRADVTRSGTPYFEVWGQGTLVTVSS", "REPORTED RESULT": 0.409}

Looking for the measured OD450 of pgEG-SX55 (VHH, not shown: small tags and cut ends) VHH: QVQLVESGGGLVQPGGSLRLSCAGTGLIFTTYVMGWYRQAPGKQRELVAIVTNGGGTHYADFVKGRFTISRDNAKNTVSLQMNLLKPEDTAVYYCNARHLVRPGTNDYWGQGTLVTVSS , can you help?
0.125

Look up OD450 for this binder: pgEG-SX57 (VHH, not shown: small tags and cut ends) VHH: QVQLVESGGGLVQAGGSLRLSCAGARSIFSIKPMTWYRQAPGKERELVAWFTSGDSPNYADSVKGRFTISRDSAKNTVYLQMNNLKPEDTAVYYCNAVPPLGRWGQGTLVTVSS
0.648

Need OD450 of pgEG-SX40 (VHH, not shown: small tags and cut ends) VHH: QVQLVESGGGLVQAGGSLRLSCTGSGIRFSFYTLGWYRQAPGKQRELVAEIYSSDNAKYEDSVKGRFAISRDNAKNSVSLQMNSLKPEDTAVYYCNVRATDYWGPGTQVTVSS , thanks.
0.121

Looking for the measured OD450 of pgEG5 (VHH, not shown: small tags and cut ends) VHH: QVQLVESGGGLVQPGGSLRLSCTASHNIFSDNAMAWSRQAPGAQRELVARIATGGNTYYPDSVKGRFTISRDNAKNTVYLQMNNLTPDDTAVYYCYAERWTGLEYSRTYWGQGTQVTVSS , can you help?
0.119

Requested field: OD450. Item: pgEG-SX52 (VHH, not shown: small tags and cut ends) VHH: QVQLVESGGGLVKAGKSLRLSCAASVSSFDTYTMGWYRQAPGKQREQVAIITPGAGTHYADSVKGRFTISRDNAKNTVYLQMSSLKLEDTAVYYCKARHRITGYDYWGQGTQVTVSS
0.196
